Each recorded value in this set is attributed to PubChem BioAssay (NCI).

Assay: NCI Yeast Anticancer Drug Screen. Data for the bub3 strain (AID 167)
Conditions: S. cerevisiae bub3 mutant strain, at 50.0 µM, hits give high values
The panel holds about 79,000 compounds, 15% with a hit somewhere; the sample as a whole holds those more often.
ENDPOINT: growth inhibition (%)
Write the answer as a number in %, unit excluded.

Example entries begin here.
{"columns": ["CHEM_SMILES", "growth inhibition / %"],
 "data": [
  ["COC(=O)[C@@]12OC[C@]34[C@H]([C@@H](O)[C@@H]1O)[C@@]1(C)CC(=O)C(O)=C(C)[C@@H]1C[C@H]3OC(=O)[C@H](OC(=O)/C=C(\\C)C(C)C)[C@@H]24", 91.5],
  ["CCc1cccc(C(C)C)c1NC1=C([n+]2ccc(C)cc2)C(=O)c2ccccc2C1=O", 41.5],
  ["O=c1oc2ccccc2c(O)c1C(c1ccc(OCc2ccccc2)cc1)c1c(O)c2ccccc2oc1=O", 60.2]
]}

Here is the next item to consider.
Respond only with growth inhibition recorded for Cc1ccc([C@H]2N[C@@H]2c2ccccn2)cc1
-2.75

* * *

Assay: NCI Yeast Anticancer Drug Screen. Data for the rad14 strain (AID 159);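 note: 0% = growth of vehicle-treated control cultures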
Conditions: S. cerevisiae rad14 strain growth inhibition; at 100.0 µM; hits give high values
This is part of a sample that, as a whole, favours compounds with a hit. Of some 79,000 tested, about 15% had one in any assay.
ENDPOINT: growth inhibition (%)
Write the answer as a number in %, unit excluded.

{"columns": ["COMPOUND", "ENDPOINT", "VALUE_UNIT", "MEAS_VALUE"],
 "data": [
  ["COc1cccc2c1C(=O)c1c(O)c3c(c(O)c1C2=O)C[C@@](O)(C(C)=O)C[C@@H]3OC1CC(N)C(OC2CC(O)C(O)C(C)O2)C(C)O1 (stereo not given in full)", "growth inhibition", "%", 15]
]}

Respond only with growth inhibition recorded for CCOC(=O)C1=C(C(=O)OCC)C2(c3ccccc3)N(O1)c1ccccc1C2(C)C (stereo not given)
62

* * *

Measured growth inhibition of individual entries
Experiment: NCI Yeast Anticancer Drug Screen. Data for the bub3 strain (AID 167)
Conditions: S. cerevisiae bub3 mutant strain, at 50.0 µM (retest, dose inferred, filed as 5.0), hits give high values
The panel holds about 79,000 compounds, 15% with a hit somewhere; the sample as a whole holds those more often.
Write the answer as a number in %, unit excluded.

{"columns": ["COMPOUND", "growth inhibition, %"],
 "data": [
  ["CCCCCCCCCCCCCCCCP(=O)(O)OP(=O)(O)OCC1OC(n2ccc(N)nc2=O)C(O)C1O (configuration not stated)", -19],
  ["CC(=O)OC1C2(CC3N4C(=O)C5(CO)SSC4(CC31O)C(=O)N5C)OC(C)C(C)(C)C2=O (configuration not stated)", 99],
  ["COC(=O)C1=C(C(=O)OC)SC2(S1)C(C(=O)OC)=C(C(=O)OC)Sc1c2ssc1=O", 94],
  ["Oc1ccc([Te]CCNCC[Te]c2ccc(O)cc2)cc1", 29],
  ["COc1ccc(Br)cc1/C=C/[N+](=O)[O-]", 99],
  ["Cc1cc(N(CCCl)CCCl)ccc1CN1CCCN(Cc2ccc(N(CCCl)CCCl)cc2C)C1c1ccc(N(CCCl)CCCl)cc1C", 99],
  ["COC(=O)C(Cl)(Br)CCl (configuration not stated)", 95],
  ["CC(=O)OC1C(=O)OCC23CCC4(C)OC4C2OC2CC(OC(=O)/C=C/C=C/C(=O)OCCC1C)C3(C)C21CO1 (configuration not stated)", 98],
  ["C=Cc1cc(OC)c2c(c1)c(=O)oc1c2cc(OC)c2c(O)ccc(C3OC(C)C(O)C(C)(O)C3O)c21 (configuration not stated)", 98],
  ["O=C(CBr)OCc1ccccc1", 99]
]}

Respond only with growth inhibition recorded for CN(C)CCSC1=Nc2ccc(Cl)cc2C(c2ccccc2Cl)=NC1
52

Respond only with growth inhibition recorded for CCC[CH2][Sn]1([CH2]CCC)[O]Cc2nc(C)ccc2[O]1
96

Respond only with growth inhibition recorded for CCOC(=O)C(Cc1ccc(O)cc1)NCc1ccc(N(CCCl)CCCl)cc1 (configuration not stated)
94

Respond only with growth inhibition recorded for CCC[CH2][Sn]1([CH2]CCC)[O]C(=O)c2cccnc2[O]1
97

Respond only with growth inhibition recorded for Oc1c(Cl)c(Cl)c(Cl)c(Cl)c1Cl.[Cu+2]
97

Respond only with growth inhibition recorded for CCCCCC(Cn1ccnc1)c1ccc(Cl)cc1Cl (configuration not stated)
99

Respond only with growth inhibition recorded for CCN(CCCl)c1cc(CN(C)C)cc(NC(=O)c2ccc(C(=O)Nc3cc(CN(C)C)cc(N(CC)CCCl)c3)cc2)c1
97

Respond only with growth inhibition recorded for CC(C)CCCC(C)CCC1C(=O)NC(=O)NC1=O (configuration not stated)
-3

* * *

Experiment: NCI Yeast Anticancer Drug Screen. Data for the bub3 strain (AID 167)
Conditions: S. cerevisiae bub3 mutant strain, at 50.0 µM, hits give high values
About 79,000 compounds went through this panel and 15% of them were active in at least one assay; those are over-represented in the sample as a whole. The source made the active and inactive calls. Cut-off read from the data, not from the text of the source: active = growth inhibition above about 70%; inactive = the rest.
Measured growth inhibition of individual entries

Example entries begin here.
{"columns": ["MOLECULE", "growth inhibition"],
 "data": [
  ["CC12CCC(O)CC1CCC1C2CCC2(C)C(C(=O)CC(O)C(F)(F)F)CCC12 (stereo not drawn)", "84% (active)"],
  ["CC(=O)OCC1OC([S-])C(OC(C)=O)C(OC(C)=O)C1OC(C)=O.CC[PH+](CC)CC.CC[PH+](CC)CC.[Au].[Au] (stereo not drawn)", "89.9% (active)"],
  ["C[N+]1(CCCl)CC[N+](C)(CCCl)CC1 (stereo not drawn)", "97% (active)"]
]}

Respond only with growth inhibition recorded for CC1=CCC2(C)C3CCC4(C)C(O)CCC4C3CCC2(C)C1 (stereo not drawn)
39.5% (inactive)

Respond only with growth inhibition recorded for CC(C)c1cccc(C(C)C)c1NC(=O)C(=O)CC(=O)CC(c1ccccc1)c1c(O)c2ccccc2oc1=O (stereo not drawn)
70.7% (active)

Respond only with growth inhibition recorded for COC12C(COC(C)=O)C3=C(C(=O)C(C)=C(N4CCCCC4)C3=O)N1CC1NC12 (stereo not drawn)
88% (active)

Respond only with growth inhibition recorded for O=[N+]([O-])c1cccc(N=Cc2ccc(N(CCCl)CCCl)cc2)c1
8% (inactive)

Respond only with growth inhibition recorded for ClC1=C(Cl)C2(Cl)C(C3CO3)CC1(Cl)C2(Cl)Cl (stereo not drawn)
89.7% (active)

* * *

Measured growth inhibition of individual entries
Experiment: NCI Yeast Anticancer Drug Screen. Data for the rad14 strain (AID 159);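 note: 0% = growth of vehicle-treated control cultures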
Settings: S. cerevisiae rad14 strain growth inhibition; at 1.2 µM; hits give high values
This is part of a sample that, as a whole, favours compounds with a hit. Of some 79,000 tested, about 15% had one in any assay.
Write the answer as a number in %, unit excluded.

Example entries begin here.
{"columns": ["COMPOUND", "growth inhibition [%]"],
 "data": [
  ["O=Cc1ccc(C(F)(F)F)cc1.[C-]#[O+].[C-]#[O+].[C-]#[O+].[Cr]", 6],
  ["CCc1cccc(C(C)C)c1NC1=C([n+]2ccc(C)cc2)C(=O)c2ccccc2C1=O", -1],
  ["C/C(CCl)=N/NC1=NC(c2ccccc2Cl)P(=O)(NCCCNP2(=O)SC(N/N=C(/C)CCl)=NC2c2ccccc2Cl)S1 (centres undefined)", 0]
]}

Here is the next item to consider.
Respond only with growth inhibition recorded for Oc1cccc2cccnc12
22

* * *

Experiment: NCI Yeast Anticancer Drug Screen. Data for the mgt1 strain (AID 153)
Conditions: S. cerevisiae mgt1 mutant growth inhibition; at 33.0 µM; hits give high values
Compounds without any hit were thinned out: in the full panel of roughly 79,000, 15% have a hit.
Measured growth inhibition of individual entries
Write the answer as a number in %, unit excluded.

{"columns": ["MOLECULE", "growth inhibition / %"],
 "data": [
  ["OC(c1ccc(Br)cc1)C(Cl)(Cl)Cl (stereo not given)", 89],
  ["CC[C@@]1(O)C(=O)OCc2c1cc1n(c2=O)Cc2cc3ccccc3nc2-1", 91],
  ["Nc1nc(N)c2c(Cl)c(CNc3ccc(C(=O)NC(CC(=O)O)C(=O)O)cc3)ccc2n1 (stereo not given)", 30],
  ["COc1cc2ccccc2c2cc([N+](=O)[O-])oc12", 43],
  ["CCNCC(=O)O[C@]1(CC)C(=O)OCc2c1cc1n(c2=O)Cc2cc3ccccc3nc2-1", 18]
]}

Respond only with growth inhibition recorded for CO[C@H](/C(C)=C/C=C/C(C)=C/c1coc(C)n1)[C@H](C)[C@H]1C[C@@H](O)[C@@]2(C)O[C@H]2/C=C/[C@@H](C)[C@@H]2C[C@@H](CC(=O)O2)C[C@H]2O[C@@H]2C(=O)O1
24

Respond only with growth inhibition recorded for COC(=O)C1=C(C(=O)OC)SC2(S1)C(C(=O)OC)=C(C(=O)OC)Sc1c2ssc1=O
99

Respond only with growth inhibition recorded for CCC1(O)C(=O)OCc2c1cc1n(c2=O)Cc2c-1nc1ccccc1c2OC (stereo not given)
8

Respond only with growth inhibition recorded for BrCC[N+]12CC[N+](CCBr)(CC1)C2
88
